Attribution: PubChem BioAssay

assay-summary: growth inhibitors of H69AR lung tumor, primary screen, human, duplicate replicates (AID 580);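 note: 100% = mean luminescence of untreated wells and 0% = no signal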
settings: H69AR lung tumor cells viability, ATP luminescence, 72 h; at 10 µM; stronger effect = lower value
Property: viability; scope: individual compounds
value-kind: viability (%)

>>> reported_result("CCCOc1ccccc1NC(=O)c1ccc(N)cc1")
98.2
>>> reported_result("Nc1nc(Nc2cccc3ccccc23)nc(C2CCCC2=O)n1 (stereo not given)")
18
>>> reported_result("NCc1ccc(S(N)(=O)=O)cc1")
102
>>> reported_result("Cc1nnc(N(C)C(=O)c2cccnc2)s1")
88.7
>>> reported_result("CCc1ccccc1NC(=O)C(CC)Sc1nc2cc3c(cc2c(=O)n1Cc1ccco1)OCO3 (stereo not given)")
28.3

----------
Below, each of the compounds is paired with its reported viability value.
assay-summary: reducers of endogenous Her2 protein level, primary screen, SKBR3 breast tumor cells, AlphaScreen, ATP viability (AID 461);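 for viability: percent of carrier control wells set as 100% viability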
settings: 18-24 h, measured here: SKBR3 viability, ATP luminescence, at 10 µM
value-kind: viability (%)

>>> reported_result("CN(CC(O)COc1ccc(OCC(O)CN(C)C2CCCCC2)cc1)C1CCCCC1 (stereo not given)")
88
>>> reported_result("CCOC(=O)c1cccc(NC(=O)C2CCN(S(=O)(=O)c3cccs3)CC2)c1")
75.5
>>> reported_result("CCOC(=O)Cc1csc(NC(=O)CSc2nnc(-c3ccncc3)n2Cc2ccco2)n1")
107
>>> reported_result("COc1ccc(-c2noc(CN3C(=O)c4ccccc4C3=O)n2)cc1")
102
>>> reported_result("CC(C)(C)c1cc(NC(=O)c2cc(F)c(F)c(F)c2F)no1")
102

----------
In this section, each of the molecules is paired with its reported viability.
assay-summary: HUVEC growth inhibition – cell-based, human, primary screen (AID 575);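 note: 100% = median of untreated cell wells with 0.1% DMSO on each plate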
settings: HUVEC proliferation, CellTiter-Glo luminescence, 72 h; at 10 µM; stronger effect = lower value
value-kind: viability (%)

>>> reported_result("COC(=O)CN(Cc1ccco1)S(=O)(=O)c1ccccc1")
102
>>> reported_result("COc1ccc(C(=O)N2CCOCC2)cc1Br")
116
>>> reported_result("N[C@@H](C(=O)N[C@@H]1C(=O)N2C(C(=O)O)=C(Cl)CS[C@H]12)c1ccccc1")
98
>>> reported_result("Cc1cc(C(=O)Nc2cccnc2)no1")
101

----------
assay-summary: growth inhibitors of H69AR lung tumor, primary screen, human, duplicate replicates (AID 580);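 note: 100% = mean luminescence of untreated wells and 0% = no signal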
settings: H69AR lung tumor cells viability, ATP luminescence, 72 h; at 10 µM; stronger effect = lower value
The source made the active and inactive calls.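 The calls were made as follows: active = viability at or under a set limit in both replicates, limit being median viability minus 3 SD (cut at about 48% in these data, passing the limit was not always enough); inconclusive = at or under the limit in just one replicate; inactive = at or above the limit in both replicates.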
Below, each entry is listed with its recorded viability.
value-kind: viability

>>> reported_result("Nc1nc2c(ncn2COCCO)c(=O)[nH]1")
"98.9% (inactive)"
>>> reported_result("CC(=O)Nc1ccc(S(=O)(=O)n2cnc(C)c2)cc1")
"104% (inactive)"
>>> reported_result("COc1ccc(Cl)cc1NC(=O)CCN1CCN(c2ccccc2C)CC1")
"97.1% (inactive)"
>>> reported_result("CCCn1c(=O)c2[nH]c(C3CCCC3)nc2n(CCC)c1=O")
"70.7% (inactive)"
>>> reported_result("CCc1cc2c(=O)c(-c3cscn3)coc2cc1O")
"88.8% (inactive)"
>>> reported_result("O=C(NCCCN1CCN(Cc2ccccc2)CC1)C1CCN(c2nnc(-n3cccc3)s2)CC1")
"88.7% (inactive)"
>>> reported_result("O=C(CN(Cc1ccc(F)cc1)C(=O)c1ccco1)NCc1ccc(F)cc1")
"94.1% (inactive)"
>>> reported_result("CS(=O)(=O)N1CCCC(C(=O)N2CCOCC2)C1 (stereo not given)")
"98.3% (inactive)"
>>> reported_result("NS(=O)(=O)c1ccc(CCNC(=O)c2cccnc2)cc1")
"97.2% (inactive)"
>>> reported_result("CCN(CC)CCOC(=O)C1(c2ccc(OC)c(OC)c2)CCCC1")
"82.7% (inactive)"
>>> reported_result("C=CCn1cnc2c(c1=O)c1nc3ccccc3nc1n2-c1ccc(C)cc1")
"86.9% (inactive)"
>>> reported_result("O=C(NCc1ccco1)c1ccccc1Nc1ccc(F)cc1")
"79.2% (inactive)"
>>> reported_result("Clc1ccc(Cl)c(-c2nn3c(Cn4cnc5ccccc54)nnc3s2)c1")
"102% (inactive)"
>>> reported_result("Cc1ccccc1N1CC(c2nc3ccccc3[nH]2)CC1=O (stereo not given)")
"96.1% (inactive)"
>>> reported_result("Cc1ccc(C)c(NS(=O)(=O)c2ccc(NC(=O)c3ccco3)cc2)c1")
"90.5% (inactive)"
>>> reported_result("CCOC(=O)N1CCC(NC(=O)CCC(=O)N2CC(C)Oc3ccc(Cl)cc32)CC1 (stereo not given)")
"92.5% (inactive)"
>>> reported_result("CCCOc1cccc(NC(=O)c2c(-c3ccccc3)noc2C)c1")
"86.7% (inactive)"
>>> reported_result("Cc1nc(NC2=NCN(CCN3CCOCC3)CN2)nc2c(C)cccc12")
"95.2% (inactive)"
>>> reported_result("CN(C)C(=O)Oc1ccc[n+](C)c1")
"87% (inactive)"
>>> reported_result("COc1cccc(C(=O)Nc2ccc(NC(C)=O)cn2)c1")
"106% (inactive)"
>>> reported_result("CC(=O)OCC(=O)[C@H]1CC[C@H]2[C@@H]3CC=C4C[C@@H](O)CC[C@]4(C)[C@H]3CC[C@]12C")
"96.8% (inactive)"
>>> reported_result("CC(C)OC(=O)CSc1nnc(-c2cccnc2)n1Cc1ccccc1")
"89.9% (inactive)"
>>> reported_result("O=C(CSc1ccc(-c2ccccc2)nn1)N1CCOCC1")
"95.2% (inactive)"
>>> reported_result("CCOC(=O)CSc1nnc(-c2ccc(NS(=O)(=O)c3ccc(C)cc3)cc2)o1")
"91.5% (inactive)"
>>> reported_result("O=C(COC(=O)CCC1CCCC1)Nc1ccc(Cl)cn1")
"98.6% (inactive)"
>>> reported_result("Cn1c(C(=O)NCc2cccnc2)cc2sccc21")
"93% (inactive)"
>>> reported_result("C=CCN(CC=C)C(=O)CN1C(=O)c2ccccc2C1=O")
"92.2% (inactive)"
>>> reported_result("CC(CC(=O)NCc1ccccc1)C1CCCO1 (stereo not given)")
"93.4% (inactive)"
>>> reported_result("c1ccc(-c2cc(N3CCCCC3)ncn2)cc1")
"99.7% (inactive)"
>>> reported_result("CC1CCCN(c2ccc(C(=O)NCc3cccs3)cn2)C1 (stereo not given)")
"82.8% (inactive)"
>>> reported_result("CCOC(=O)C1CCN(CC(=O)c2c(C)[nH]c3ccccc23)CC1")
"92.6% (inactive)"
>>> reported_result("CCOC(=O)c1[nH]c(C)c(C(=O)Nc2cc(OC)ccc2OC)c1C")
"25.5% (active)"
>>> reported_result("CCOC(=O)C1CCN(C(=O)Nc2ccc(Cl)cc2Cl)CC1")
"104% (inactive)"
>>> reported_result("CCC(CCC(=O)Nc1cccc(C(=O)O)c1)C(=O)O (stereo not given)")
"103% (inactive)"
>>> reported_result("COc1ccccc1C(=O)Nc1c2c(nn1-c1cccc(C)c1C)CS(=O)(=O)C2")
"95.2% (inactive)"
>>> reported_result("Cc1cc(NC(=O)CSc2nccn2-c2ccc(Cl)cc2)no1")
"106% (inactive)"
>>> reported_result("NS(=O)(=O)c1cc2c(cc1Cl)NC(CSCc1ccccc1)=NS2(=O)=O")
"92.6% (inactive)"
>>> reported_result("COc1cc(NC(=O)Cc2ccccc2OC)cc(OC)c1")
"95.7% (inactive)"
>>> reported_result("CCc1cn([C@H]2C[C@H](O)[C@@H](CO)O2)c(=O)[nH]c1=O")
"85.9% (inactive)"
>>> reported_result("O=C(O)/C=C/c1ccc(O)c(O)c1")
"97.9% (inactive)"

----------
assay-summary: reversal of MRP1-mediated doxorubicin resistance, pilot screen, H69AR cells, doxorubicin co-treatment (AID 601)
settings: H69AR cells, CellTiter-Glo, 72 h; compound alone cytotoxicity; at 10 µM
As shown below, each of these compounds has a reported viability value.
value-kind: viability (%)

>>> reported_result("CC1=C(C(=O)Nc2ccccc2C)C2(CCCC2)C(C(N)=O)C(=O)N1 (stereo not given)")
90
>>> reported_result("CCOC(=O)CSc1nc2ccccc2n1CC(=O)N1CCN(c2ccccc2)CC1")
89.9
>>> reported_result("NS(=O)(=O)c1cc2c(cc1Cl)NC(CSCc1ccccc1)=NS2(=O)=O")
92.6
>>> reported_result("CCCCC(CC)C(=O)Nc1ccccc1C#N (stereo not given)")
89.1
>>> reported_result("CN(C)C(CNC(=O)Nc1cccc(Cl)c1)c1cccnc1 (stereo not given)")
90.6

----------
target-or-system: Receptor tyrosine-protein kinase erbB-2 (Homo sapiens) (UniProt P04626)
Sequence (P04626 whole entry, looked up): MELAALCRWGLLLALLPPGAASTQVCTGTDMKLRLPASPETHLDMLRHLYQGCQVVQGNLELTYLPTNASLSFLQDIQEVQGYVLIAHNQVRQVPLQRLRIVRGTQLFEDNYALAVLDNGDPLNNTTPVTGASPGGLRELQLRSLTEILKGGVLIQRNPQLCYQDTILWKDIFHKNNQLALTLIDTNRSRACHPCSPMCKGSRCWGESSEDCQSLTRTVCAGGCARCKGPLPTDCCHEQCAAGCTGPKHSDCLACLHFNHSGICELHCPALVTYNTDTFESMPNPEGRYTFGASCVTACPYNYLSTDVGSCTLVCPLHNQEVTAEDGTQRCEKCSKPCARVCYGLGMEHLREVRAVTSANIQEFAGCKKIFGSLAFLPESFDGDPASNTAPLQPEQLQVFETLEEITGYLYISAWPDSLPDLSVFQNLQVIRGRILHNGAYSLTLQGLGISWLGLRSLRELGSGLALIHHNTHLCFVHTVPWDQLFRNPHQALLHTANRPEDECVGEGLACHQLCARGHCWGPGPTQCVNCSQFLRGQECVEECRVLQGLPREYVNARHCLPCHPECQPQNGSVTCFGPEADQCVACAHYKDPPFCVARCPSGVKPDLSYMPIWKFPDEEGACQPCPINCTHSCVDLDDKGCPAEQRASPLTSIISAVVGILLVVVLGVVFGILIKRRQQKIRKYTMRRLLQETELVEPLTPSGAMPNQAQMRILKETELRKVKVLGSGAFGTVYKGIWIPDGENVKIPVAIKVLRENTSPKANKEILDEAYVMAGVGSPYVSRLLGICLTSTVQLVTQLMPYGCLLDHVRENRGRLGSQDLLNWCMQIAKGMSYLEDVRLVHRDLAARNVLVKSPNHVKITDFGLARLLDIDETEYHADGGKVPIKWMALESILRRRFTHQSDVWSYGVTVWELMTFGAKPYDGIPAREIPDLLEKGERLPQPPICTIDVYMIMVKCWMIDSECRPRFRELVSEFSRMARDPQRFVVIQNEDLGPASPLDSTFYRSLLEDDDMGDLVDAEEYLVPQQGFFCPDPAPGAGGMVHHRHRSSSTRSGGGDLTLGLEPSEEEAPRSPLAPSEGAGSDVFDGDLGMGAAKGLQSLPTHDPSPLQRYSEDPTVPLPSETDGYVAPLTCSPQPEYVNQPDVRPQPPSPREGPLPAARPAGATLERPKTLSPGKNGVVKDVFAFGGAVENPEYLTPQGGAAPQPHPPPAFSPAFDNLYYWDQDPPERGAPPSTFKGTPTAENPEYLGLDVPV
assay-summary: reducers of endogenous Her2 protein level, primary screen, SKBR3 breast tumor cells, AlphaScreen, ATP viability (AID 461);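 for Her2 level: lower value means less Her2 protein in the cells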;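 for viability: percent of carrier control wells set as 100% viability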
settings: 18-24 h, at 10 µM, stronger effect = lower value
value-kind: Her2 level (%)

>>> reported_result("CC1Cc2ccccc2N1C(=O)c1cnsn1 (centres undefined)")
103
>>> reported_result("CCOCC(=O)Nc1nc2ccc(OC)cc2s1")
102
>>> reported_result("CN1CCc2c(sc3c2c(=O)n(-c2ccccc2)c2nnc(SCc4ccc(F)cc4)n32)C1")
94.5
>>> reported_result("CC1CCCN(c2ccc(C(=O)NCc3cccs3)cn2)C1 (centres undefined)")
89.5
>>> reported_result("Cn1c(=O)c2c(-c3ccncc3)c3c(nc2n(C)c1=O)-c1ccccc1C3=O")
104
>>> reported_result("CC(C)CC(=O)N1CCN(S(=O)(=O)c2ccc(F)cc2)CC1")
102
>>> reported_result("Cn1c(NCc2cccc(Br)c2)nc2ccccc21")
86.5
>>> reported_result("CCOC(=O)C1(C(=O)OCC)C(c2ccccc2)CC(O)N1C(C)=O (centres undefined)")
95
>>> reported_result("C=CCn1c(COc2ccc(Cl)cc2)nnc1SCC(=O)N1CC(=O)Nc2ccccc21")
76.5
>>> reported_result("O=C(COC(=O)c1cnccn1)c1ccc(OC(=O)c2ccccc2)cc1")
100
>>> reported_result("CCOC(=O)N1CCN(CC(=O)Nc2c(C(=O)OC)[nH]c3cccc(Cl)c23)CC1")
97.5
>>> reported_result("Cc1ccc(CCNC(=O)C2CCCN2S(=O)(=O)c2ccc3c(c2)CCC(=O)N3)cc1 (centres undefined)")
93.5
>>> reported_result("Cc1ccc2c(c1)-c1c(cnn1CC(=O)Nc1ccccc1N1CCN(C)CC1)CO2")
84
>>> reported_result("CC1Cc2ccccc2N1C(=O)COC(=O)Cn1nnc(-c2ccccc2)n1 (centres undefined)")
92.5
>>> reported_result("CC[C@]1(O)C[C@@H]2CN(CCc3c([nH]c4ccccc34)[C@@](C(=O)OC)(c3cc4c(cc3OC)N(C)[C@H]3[C@@](O)(C(=O)OC)[C@H](OC(C)=O)[C@]5(CC)C=CCN6CC[C@]43[C@@H]65)C2)C1")
78.5
>>> reported_result("Cc1ccc(NC(=O)COS(=O)c2ccc(C)cc2)cc1 (centres undefined)")
95.5
>>> reported_result("OC(CN1CCCCC1)Cn1c(C(F)(F)F)nc2ccccc21 (centres undefined)")
103
>>> reported_result("CC(C)CCNC(=O)NC(=O)CSc1nnc(-c2ccccc2Br)o1")
95.5
>>> reported_result("COc1ccccc1-n1c(SCC(=O)Nc2ccc3c(c2)OCO3)nc2c(c1=O)SCC2")
112
>>> reported_result("COc1cc2nc(SCC(=O)NC3CC3)n(CCC3=CCCCC3)c(=O)c2cc1OC")
107
>>> reported_result("Cc1cccc2cc(C#N)c(NCCNC(=O)NC3CCCCC3)nc12")
84.5
>>> reported_result("Cc1occc1C(=O)Nc1cccnc1")
92
>>> reported_result("CCn1c(=O)cc(SCC(=O)Nc2ccc3c(c2)OCO3)c2ccccc21")
88
>>> reported_result("CCOC(=O)c1sc2nc(SCC#N)n(CCCN3CCCC3=O)c(=O)c2c1C")
73
>>> reported_result("Cc1ccc2c(c1)c1c3n2CC(=C2C(=O)OC(C)(C)OC2=O)NC3CCC1 (centres undefined)")
73
>>> reported_result("CCOC(=O)n1c(SCC(=O)N(CC)CC)nc2ccccc21")
97.5
>>> reported_result("O=C1c2cccnc2C(O)N1Cc1ccc(F)cc1 (centres undefined)")
88
>>> reported_result("CCCCOc1ccccc1NC(=O)c1ccco1")
93
>>> reported_result("CNc1ccc(C(O)(C(F)(F)F)C(F)(F)F)cc1C(O)(C(F)(F)F)C(F)(F)F")
73
